The entries below pair molecules with IC50 values for Hepatocyte growth factor receptor (Homo sapiens), as found in several publications.

Study these solved cases before continuing.
{"columns": ["molecule", "obs-value"],
 "data": [
  ["O=C1CNc2ncc(-c3ccc(NC(=O)N4CCC[C@H]4CN4CCCC4)cc3)cc2N1Cc1cc(F)ccc1F", "1000 to 10000 nM"],
  ["O=C(O)c1cncc(-c2cnc3c(c2)N(Cc2cc(F)ccc2F)CCN3)c1", "10000 to 100000 nM"],
  ["CNCCOc1cc2nccc(Oc3c(F)cc(NC(=O)c4cnc(NCCOC)cc4OC)cc3F)c2cc1OC", "≤ 100 nM"]
]}

Query string: Provide IC50 value for the following molecule: Cn1ncc2cc(C(=O)Nc3ccc(Oc4ccnc(N)c4Cl)c(F)c3)c(=O)n(-c3ccc(F)cc3)c21
Result string: < 10 nM

Query string: Provide IC50 value for the following molecule: COc1ccc(-c2ccc3nnc(Sc4ccc5nc(NC(=O)C6CC6)cn5n4)n3c2)cn1
Result string: 30 to 59 nM

Query string: Provide IC50 value for the following molecule: CC(C)n1cc(C(=O)Nc2ccc(Oc3ccnc4cc(OCCCN5CCS(=O)(=O)CC5)c5c(c34)OCCO5)c(F)c2)c(=O)n(-c2ccc(F)cc2)c1=O
Result string: 50 to 500 nM

Query string: Provide IC50 value for the following molecule: Cc1ccc2nnc(Sc3ccc4ncc(-c5cnn(C6CN(C(=O)OC(C)(C)C)C6)c5)cc4c3)n2n1
Result string: < 100 nM

====

pIC50: −log10 of the molar value.
The entries below pair compounds with pIC50 values for Hepatocyte growth factor receptor (Homo sapiens, UniProt P08581), as found in several publications.

Study these solved cases before continuing.
{"columns": ["compound", "measurement-target", "obs-value"],
 "data": [
  ["CC(C)n1cc(C(=O)Nc2ccc(Oc3ccnc4cc(OCCO)c5c(c34)OCCO5)c(F)c2)c(=O)n(-c2ccc(F)cc2)c1=O", "Hepatocyte growth factor receptor (Homo sapiens, UniProt P08581)", "≥ 7.30"],
  ["N#CCc1cccc(-c2ccc3nnc(Cc4ccc5ncccc5c4)n3n2)c1", "Hepatocyte growth factor receptor (Homo sapiens, UniProt P08581)", "> 7.00"],
  ["O=C1CNc2ncc(-c3ccc(C(=O)N4CCC[C@H]4CN4CCCC4)cc3)cc2N1Cc1c(Cl)cccc1Cl", "Hepatocyte growth factor receptor (Homo sapiens, UniProt P08581)", "5.00 to 6.00"]
]}

Query string: Provide pIC50 value for the following compound: Nc1ncnc2c1c(-c1cc(OCC34CCC(CC3)O4)ccc1F)cn2[C@H]1C[C@@H](N2CC[S+]([O-])CC2)C1 (relative stereo)
Result string: < 5.00

Query string: Provide pIC50 value for the following compound: COc1ccc(-c2ccc3nnc(C(C)c4ccc5nc(NC(=O)C6CC6)cn5n4)n3c2)cc1 (stereo not shown)
Result string: > 7.52

Query string: Provide pIC50 value for the following compound: COc1ncc(-c2cnc3c(c2)N(Cc2cc(Cl)ccc2Cl)CCN3)cn1
Result string: 4.00 to 5.00

Query string: Provide pIC50 value for the following compound: CN(C)CCCOc1c(F)cc(-c2ccc(=O)n(Cc3ccc4[nH]c(=O)[nH]c4c3)n2)cc1F
Result string: 6.00 to 8.00

====

The entries below pair compounds with IC50 values for Hepatocyte growth factor receptor (Homo sapiens), as found in several publications.

Study these solved cases before continuing.
{"columns": ["molecule", "IC50"],
 "data": [
  ["Cc1ccc2nnn(Cc3ccc4nc(NC(=O)C5CC5)cn4n3)c2c1", "> 100 nM"],
  ["O=C1CNc2ncc(-c3cccnc3)cc2N1Cc1ccccc1", "10000 to 100000 nM"],
  ["COc1cc2nccc(Oc3ccc(NC(=O)C4(C(=O)Nc5ccc(F)cc5O)CC4)cc3)c2cc1OC", "< 50 nM"],
  ["CNCCOc1cc2nccc(Oc3c(F)cc(NC(=O)c4cnccc4OC[C@@H](C)F)cc3F)c2cc1OC", "≤ 100 nM"],
  ["Cn1ncc2ccc(-c3n[nH]c4c3Cc3sc(-c5ccc(C(=O)N6CCCC6)cc5)cc3-4)cc21", "> 1000 nM"],
  ["CCOc1ccn(Cc2ccccc2)c(=O)c1C(=O)Nc1ccc(Oc2ccnc3cc(OC)c4c(c23)OCCO4)c(F)c1", "≤ 50 nM"]
]}

Query string: State recorded IC50 with Hepatocyte growth factor receptor (Homo sapiens), entry Cn1cc(-c2cc(Oc3ccc(NC(=O)Nc4cnn(C(C)(C)C)c4C(F)(F)F)c(F)c3)ccn2)cn1 , no comment.
Result string: < 10000 nM

Query string: State recorded IC50 with Hepatocyte growth factor receptor (Homo sapiens), entry CC(C)n1cc(-c2ccc3nnc(C(F)(F)c4cc5cn(C)nc5cc4F)n3n2)cn1 , no comment.
Result string: 82.9 nM

Query string: State recorded IC50 with Hepatocyte growth factor receptor (Homo sapiens), entry Cn1cc(-c2ccc3nnc(Sc4cc5cccnc5cc4F)n3n2)cn1 , no comment.
Result string: < 100 nM

Query string: State recorded IC50 with Hepatocyte growth factor receptor (Homo sapiens), entry COc1ccncc1C(=O)Nc1cc(F)c(Oc2ccnc3cc(OC)c(O[C@@H](C)CO)nc23)c(F)c1 , no comment.
Result string: ≤ 100 nM

Query string: State recorded IC50 with Hepatocyte growth factor receptor (Homo sapiens), entry CCOC(=O)Nc1cccc(Cn2nc(-c3ccc(CNC(=O)CO)cc3)ccc2=O)c1 , no comment.
Result string: 10 to 1000 nM

Query string: State recorded IC50 with Hepatocyte growth factor receptor (Homo sapiens), entry CCOC(=O)Nc1cccc(Cn2nc(-c3ccc(CNC(=O)CN)cc3)ccc2=O)c1 , no comment.
Result string: 10 to 1000 nM

====

The entries below pair molecules with pIC50 values for Hepatocyte growth factor receptor (Homo sapiens), as found in several publications.
pIC50: −log10 of the molar value.

Study these solved cases before continuing.
{"columns": ["molecule", "measurement-target", "obs-value"],
 "data": [
  ["CCOc1c(C(=O)Nc2ccc(Oc3ccnc(N)c3)c(F)c2)c(=O)n(-c2ccc(F)cc2)c2scnc12", "Hepatocyte growth factor receptor (Homo sapiens)", "6.00 to 7.00"],
  ["COc1cccc(Cc2c[nH]c3ncc(-c4ccc(N)cc4)cc23)c1", "Hepatocyte growth factor receptor (Homo sapiens)", "≥ 5.00"],
  ["O=C(NCCN1CCCC1)c1ccc(-c2cnc3c(c2)N(Cc2cc(F)ccc2F)C(=O)CN3)cc1", "Hepatocyte growth factor receptor (Homo sapiens)", "4.00 to 5.00"]
]}

Query string: State recorded pIC50 with Hepatocyte growth factor receptor (Homo sapiens), entry Nc1ccc(F)c(-c2ccn3nccc(Oc4ccc(NC(=O)C5(C(=O)Nc6ccc(F)cc6)CC5)cc4F)c23)c1 , no comment.
Result string: > 7.40

Query string: State recorded pIC50 with Hepatocyte growth factor receptor (Homo sapiens), entry CCOC(=O)Nc1cccc(Cn2nc(-c3cccc(CNC(=O)CN4CCOCC4)c3)ccc2=O)c1 , no comment.
Result string: 6.00 to 8.00

Query string: State recorded pIC50 with Hepatocyte growth factor receptor (Homo sapiens), entry Fc1cccc(-c2ccc3nnc(Cc4ccc5ncccc5c4)n3n2)c1 , no comment.
Result string: > 7.00

Query string: State recorded pIC50 with Hepatocyte growth factor receptor (Homo sapiens), entry Cc1n[nH]c(C)c1-c1cnc(N)c(OC(C)c2cc(F)ccc2-n2cccn2)c1 (centres unmarked) , no comment.
Result string: 4.98

====

The entries below pair molecules with IC50 values for UniProtKB P08581, as found in several publications.

{"columns": ["molecule", "measurement-target", "IC50"],
 "data": [
  ["c1ccc(-c2ccc3nnc(Cc4ccc5nc[nH]c5c4)n3n2)cc1", "UniProtKB P08581", "100 to 1000 nM"]
]}

Query string: State recorded IC50 with UniProtKB P08581, entry CCOC(=O)Nc1cccc(Cn2nc(-c3ccc(C(=O)NCCO)cc3)ccc2=O)c1 , no comment.
Result string: 10 to 1000 nM

Query string: State recorded IC50 with UniProtKB P08581, entry COc1cc2nccc(Oc3ccc(NC(=O)c4c(OC)ccn(-c5ccc(F)cc5)c4=O)cc3F)c2c2c1OCCO2 , no comment.
Result string: ≤ 50 nM

====

The entries below pair compounds with IC50 values for UniProtKB P08581, as found in several publications.

Study these solved cases before continuing.
{"columns": ["molecule", "obs-value"],
 "data": [
  ["CC(=O)Nc1cc(Oc2ccc(NC(=O)c3c4n(n(-c5ccccc5)c3=O)CCCC4)nc2)ccn1", "27 nM"],
  ["COCCOc1ccc2c(Oc3c(F)cc(NC(=O)c4nnccc4OC4CC4)cc3F)ccnc2c1", "≤ 100 nM"],
  ["CCN1CC(n2cc(-c3cnc4ccc(Sc5nnc6ccc(C)nn56)cc4c3)cn2)C1", "< 100 nM"]
]}

Query string: State recorded IC50 with UniProtKB P08581, entry CC(=O)Nc1cc(Oc2ccc(NC(=O)c3c4n(n(-c5ccccc5)c3=O)CCC4)cc2F)ccn1 , no comment.
Result string: 57 nM

Query string: State recorded IC50 with UniProtKB P08581, entry COc1cc(OC)c(F)c(Cc2c[nH]c3ncc(-c4cnn(C5CCN(CCO)CC5)c4)cc23)c1F , no comment.
Result string: 10.5 nM

Query string: State recorded IC50 with UniProtKB P08581, entry CC(C)n1cc(C(=O)Nc2ccc(Oc3ccnc4cc(OCC#N)c5c(c34)OCCO5)c(F)c2)c(=O)n(-c2ccc(F)cc2)c1=O , no comment.
Result string: 50 to 500 nM

Query string: State recorded IC50 with UniProtKB P08581, entry c1ccc(-c2cn3c(Cc4ccc5ncccc5c4)nnc3s2)cc1 , no comment.
Result string: 1000 to 10000 nM

Query string: State recorded IC50 with UniProtKB P08581, entry O=C(Nc1ccccc1)Nc1ccc(Cc2c[nH]c3ncccc23)cc1 , no comment.
Result string: ≤ 10000 nM

Query string: State recorded IC50 with UniProtKB P08581, entry Nc1ncc(-c2cnn([C@@H]3CN[C@@H](C(=O)O)C3)c2)cc1-c1nc2ccccc2s1 , no comment.
Result string: ≤ 100 nM

Query string: State recorded IC50 with UniProtKB P08581, entry O=C(NCc1ccncc1)c1cnc2c(c1)N(Cc1cc(Cl)ccc1Cl)CCN2 , no comment.
Result string: > 100000 nM

Query string: State recorded IC50 with UniProtKB P08581, entry COc1cc2nccc(Oc3ccc(NC(=O)c4cn(C)c(=O)n(-c5ccc(F)cc5)c4=O)cc3F)c2c2c1OCCO2 , no comment.
Result string: ≤ 50 nM

Query string: State recorded IC50 with UniProtKB P08581, entry CCOc1ccncc1C(=O)Nc1ccc(Oc2ccnc3cc(OCCNC)c(OC)cc23)c(F)c1F , no comment.
Result string: ≤ 100 nM

Query string: State recorded IC50 with UniProtKB P08581, entry O=C(Nc1cccc(Cn2nc(-c3cc(F)cc(F)c3)ccc2=O)c1)OCCCN1CCNCC1 , no comment.
Result string: 10 to 1000 nM
